// reported growth inhibition per item
- ASSAY_NAME: NCI Yeast Anticancer Drug Screen. Data for the mec2-1 strain (AID 157)
- ASSAY_SETUP: S. cerevisiae mec2-1 strain, at 5.0 µM (retest, dose inferred, filed as 0.5), hits give high values
Compounds without any hit were thinned out: in the full panel of roughly 79,000, 15% have a hit.

- COMPOUND: "C=C(C)COc1cc(NC(=S)OC(C)C)ccc1Cl"
  growth inhibition / %: 16
- COMPOUND: "CC1C[N+](C)(C)C(C)C(=O)C1(c1ccccc1)c1ccccc1 (centres undefined)"
  growth inhibition / %: -2
- COMPOUND: "O=[N+]([O-])c1cccc(F)c1O"
  growth inhibition / %: 6
- COMPOUND: "CCCCCCCCN=C(N)c1ccc(C(=O)OCC2CCCCC2)cc1"
  growth inhibition / %: 99
- COMPOUND: "CC(=O)OCCn1c2nc(=O)[nH]c(=O)c-2nc2cc(C)c(C)cc21"
  growth inhibition / %: 0
- COMPOUND: "O=[N+]([O-])c1cc(Br)cc(Br)c1O"
  growth inhibition / %: 18
- COMPOUND: "CC(C)(C)CC(C)(C)NCc1cc(Cl)cc(Cc2cc(Cl)ccc2O)c1O"
  growth inhibition / %: 9
- COMPOUND: "CN(C)[C@H]1CC[C@H]2[C@@H]3CCC4C[C@@H](NC(=O)NC(Cc5ccccc5)c5nccs5)CC[C@]4(C)[C@H]3CC[C@]12C (some centres undefined)"
  growth inhibition / %: -16
- COMPOUND: "Cc1ccc(C(=O)C(CCC#N)(CCC#N)CCC#N)cc1"
  growth inhibition / %: -8
